- Tested on: Proteus rett C24
- assay info: Agar dilution antibacterial test (MIC)
- Format: cell-based
- condition details: Proteus rett C24
value type: MIC

Nc1nc(C(=NO)C(=O)N[C@@H]2C(=O)N3C(C(=O)O)=C(C(F)(F)F)CC[C@H]23)cs1 ... .125 µg/mL
NC(C(=O)N[C@@H]1C(=O)N2C(C(=O)O)=C(C(F)(F)F)CC[C@H]12)c1cccc(C(F)(F)F)c1 (stereo partly shown) ... 64 µg/mL
CON=C(C(=O)N[C@@H]1C(=O)N2C(C(=O)O)=C(C(F)(F)F)CC[C@H]12)c1csc(N)n1 ... 1 µg/mL

Proceed to the following item.
Query: Query (compound): CCS(=O)(=O)Nc1cccc(C(N)C(=O)N[C@@H]2C(=O)N3C(C(=O)O)=C(C(F)(F)F)CC[C@H]23)c1 (stereo partly shown) ; field requested: MIC
Reply: 32 µg/mL

* * *

Reported MIC by item:
- Test system: Staphylococcus pneumoniae Park 1
- assay info: Agar dilution antibacterial test (MIC)
- Format: cell-based
- condition details: PARK1, read-out: MIC

N[C@@H](C(=O)N[C@@H]1C(=O)N2C(C(=O)O)=C(C(F)(F)F)CC[C@H]12)c1cccc(Br)c1 ... 0.125 µg/mL
N[C@@H](C(=O)N[C@@H]1C(=O)N2C(C(=O)O)=C(C(F)(F)F)CC[C@H]12)c1ccc(F)cc1 ... 0.25 µg/mL
N[C@@H](C(=O)N[C@@H]1C(=O)N2C(C(=O)O)=C(C(F)(F)F)CC[C@H]12)c1cccc(F)c1 ... 0.25 µg/mL
N[C@@H](C(=O)N[C@@H]1C(=O)N2C(C(=O)O)=C(C(F)(F)F)CC[C@H]12)c1ccccc1 ... 0.125 µg/mL

Now look at this entry.
Query: Please report the recorded MIC for N[C@@H](C(=O)N[C@@H]1C(=O)N2C(C(=O)O)=C(C(F)(F)F)CC[C@H]12)c1ccc(O)cc1 .
Reply: 0.2 µg/mL

* * *

- Tested on: Staphylococcus aureus NRRL X1.1
- assay info: Agar dilution antibacterial test (MIC)
- Assay type: cell-based
- condition details: NRRLX1.1, read-out: MIC
We begin with a simple list: items and their reported MIC.
// units = mg/L; emit number, no label

The examples below pair each entry with its known result.
N[C@@H](C(=O)N[C@@H]1C(=O)N2C(C(=O)O)=C(C(F)(F)F)CC[C@H]12)c1ccc(O)cc1 ... 0.85
N[C@@H](C(=O)N[C@@H]1C(=O)N2C(C(=O)O)=C(C(F)(F)F)CC[C@H]12)c1ccc(F)cc1 ... 1
N[C@@H](C(=O)N[C@@H]1C(=O)N2C(C(=O)O)=C(C(F)(F)F)CC[C@H]12)c1ccccc1 ... 2
N[C@@H](C(=O)N[C@@H]1C(=O)N2C(C(=O)O)=C(C(F)(F)F)CC[C@H]12)c1cccc(F)c1 ... 2

Next up:
Query: Fill in: MIC of N[C@@H](C(=O)N[C@@H]1C(=O)N2C(C(=O)O)=C(C(F)(F)F)CC[C@H]12)c1cccc(Br)c1 is ___
Reply: 1

* * *

- System: Enterobacter cloacae EB5
- assay info: Agar dilution antibacterial test (MIC)
- Assay type: cell-based
Catalogue of MIC readings, one per entry.
Give the quantity in µg/mL, number only.

CCS(=O)(=O)Nc1cccc(C(N)C(=O)N[C@@H]2C(=O)N3C(C(=O)O)=C(C(F)(F)F)CC[C@H]23)c1 (stereo partly shown) ... 32

Query: Item under review: NC(C(=O)N[C@@H]1C(=O)N2C(C(=O)O)=C(C(F)(F)F)CC[C@H]12)c1cccc(C(F)(F)F)c1 (stereo partly shown) . Reported MIC?
Reply: 4
